ASSAYED_SYSTEM: T1, Rb^P Q444L (human, UniProt P06400 380-788, Q444L)
T1 construct: also called variant 3
T1 sequence (looked up): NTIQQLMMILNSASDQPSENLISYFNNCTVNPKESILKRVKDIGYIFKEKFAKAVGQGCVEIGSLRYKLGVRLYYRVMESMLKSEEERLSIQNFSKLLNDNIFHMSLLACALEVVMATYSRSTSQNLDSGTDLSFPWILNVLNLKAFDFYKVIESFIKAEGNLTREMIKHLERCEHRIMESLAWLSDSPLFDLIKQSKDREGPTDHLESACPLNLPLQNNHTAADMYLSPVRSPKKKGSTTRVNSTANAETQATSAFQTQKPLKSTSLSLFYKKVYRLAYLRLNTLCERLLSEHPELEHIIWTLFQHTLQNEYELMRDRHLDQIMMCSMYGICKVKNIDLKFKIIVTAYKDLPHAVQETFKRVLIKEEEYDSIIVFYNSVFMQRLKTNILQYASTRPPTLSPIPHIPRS
PROTOCOL_SUMMARY: fluorescence polarisation; 25 °C; unlabeled Rb^P titrated against 1.5 nM TMR-E2F1^TD or 7.5 nM TMR-E7^LxCxE; 25 mM Tris pH 8.0, 200 mM NaCl, 1 mM DTT, 0.1% Tween-20; 2 min incubation; quadratic fit; apparent Kd for the variants, Kd for WT
EXPERIMENTAL_CONTEXT: both partners purified
No end group written: not given here. TMR = tetramethyl rhodamine dye
READOUT_TYPE: Kd (nM)
Report as a plain number; the unit nM is understood.

>  <BINDER>
DLYCYEQLN (also: TMR label, position not given here, source: synthetic peptide, bought: GenScript) [TMR-E7^LxCxE, LxCxE peptide of the E7 oncoprotein from HPV]

>  <Kd [nM]>
4

$$$$

Please examine the following record next.
Documented Kd of {TMR}-GEGIRDLFDCDFGDLTPLD (also called E2F^TD; source: synthetic peptide, bought: GenScript) [TMR-E2F1^TD, peptide of the E2F1 transactivation domain] : 14
